# testedOn: T1, human TNFR1 (recombinant, R&D Systems cat no. 636-R1/CF, biotinylated) (human, UniProt P19438 30-211, limits assumed, biotinylated with EZ-Link NHS-LC-LC-biotin)
# T1 construct: it is not tied to the BIAcore reagent; also called p55; hTNFR1
# T1 sequence (looked up): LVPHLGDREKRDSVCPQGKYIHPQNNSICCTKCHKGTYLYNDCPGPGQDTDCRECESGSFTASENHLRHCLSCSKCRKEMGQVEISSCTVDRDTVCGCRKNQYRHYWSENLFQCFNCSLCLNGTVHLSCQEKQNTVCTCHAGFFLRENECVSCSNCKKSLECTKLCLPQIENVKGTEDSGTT
# assayText: BIAcore T100, biotinylated human TNFR1 on chip
readoutLabel: pKd
Answers are plain numbers, as −log10 of the molar value.

Consider the binder DMS0121 (bispecific antibody, anti-TNFR1 dAb / AlbudAb in-line fusion) EVQLLESGGGLVQPGGSLRLSCAASGFTFVKYSMGWVRQAPGKGLEWVSQISNTADRTYYAHSVKGRFTISRDNSKNTLYLQMNSLRAEDTAVYYCAIYTGRWVPFEYWGQGTLVTVSSASGGGGSGGGGSGGGGSDIQMTQSPSSLSASVGDRVTITCRASRPIGTTLSWYQQKPGKAPKLLILWNSRLQSGVPSRFSGSGSGTDFTLTISSLQPEDFATYYCAQAGTHPTTFGQGTKVEIKR . State its measured pKd.
9.70
